assay_comment: Mean retention time in Sprague-Dawley rat at 2 mg/kg, iv
Type: ADME, organism-based
Parameters: dose 2 mg/kg, route intravenous
condition_description: in vivo
readout_label: MRT (h)

{"columns": ["substance_smiles", "value_units", "reported"],
 "data": [
  ["COc1cc2nccc(Oc3ccc4c(C(=O)Nc5ccc(Cl)cc5)cccc4c3)c2cc1OC", "h", 31]
]}

* * *

target_under_test: Tyrosine-protein kinase Lck (Homo sapiens, UniProt P06239)
Sequence (P06239 whole entry): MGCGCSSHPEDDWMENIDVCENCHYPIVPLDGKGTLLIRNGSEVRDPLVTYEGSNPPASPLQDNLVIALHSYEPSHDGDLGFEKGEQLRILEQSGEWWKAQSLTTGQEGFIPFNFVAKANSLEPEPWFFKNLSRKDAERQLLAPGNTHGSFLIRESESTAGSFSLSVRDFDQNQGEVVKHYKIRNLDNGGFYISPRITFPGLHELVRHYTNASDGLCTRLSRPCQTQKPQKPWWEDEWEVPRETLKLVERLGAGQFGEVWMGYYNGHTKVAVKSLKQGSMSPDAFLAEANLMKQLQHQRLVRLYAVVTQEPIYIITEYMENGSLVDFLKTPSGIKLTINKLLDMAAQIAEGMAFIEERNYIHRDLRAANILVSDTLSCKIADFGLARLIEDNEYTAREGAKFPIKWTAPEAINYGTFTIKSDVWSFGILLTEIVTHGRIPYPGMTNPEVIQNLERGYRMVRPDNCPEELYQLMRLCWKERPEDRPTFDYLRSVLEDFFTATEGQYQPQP
pIC50: −log10 of the molar value.

{"columns": ["substance_smiles", "pIC50"],
 "data": [
  ["COc1cc2nccc(Oc3ccc4c(C(=O)Nc5ccc(Cl)cc5)cccc4c3)c2cc1OC", 7.42]
]}
